- ASSAYED SYSTEM: SHP2-C SH2;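 note: peptide library displayed on the E. coli surface as eCPX fusions, selected cells deep-sequenced, score is each peptide's frequency after selection divided by its frequency in the input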
- TEST SUMMARY: SH2 binding enrichment of the phosphorylated peptide, bacterial display (enrichment ratio); higher = better substrate or ligand; peptides without Tyr show the background
ASSAY READOUT: SH2 binding enrichment

[[record]]
sequence_text = "TIEDSYRKQVV [KRAS_Y40]"
readout_value = 0.6

[[record]]
sequence_text = "HFPFQCHRQLY [F12_Y53_Y53C]"
readout_value = 1.15

[[record]]
sequence_text = "REETTYLPLTS [ICAM3_Y527_S525T]"
readout_value = 0.746

[[record]]
sequence_text = "FSMGCYEISLE [HMGCL_Y198_G203E_YF]"
readout_value = 0.7

[[record]]
sequence_text = "TLSGIYQFSIA [FOXL2_Y81_I84S_YF]"
readout_value = 0.836

[[record]]
sequence_text = "LPVHFYSHVEH [PYGM_Y204_G205S]"
readout_value = 8.86

[[record]]
sequence_text = "FIATQYSLRPR [LBR_Y166_YF]"
readout_value = 0.973

[[record]]
sequence_text = "CENNRYGMGAS [PDHA1_Y227_T231A]"
readout_value = 0.723

[[record]]
sequence_text = "EIVHRYVELLD [AP1S3_Y87]"
readout_value = 1.11

[[record]]
sequence_text = "SDPIIYTLENI [ADGRE1_Y534]"
readout_value = 0.777

[[record]]
sequence_text = "FNSLLYQVPTS [CALCOCO2_Y358_P357L]"
readout_value = 0.91

[[record]]
sequence_text = "MAQDIYRASYY [ALK_Y1278_R1275Q]"
readout_value = 0.73

[[record]]
sequence_text = "SKNFTYIWWLN [PSG4_Y271_YF]"
readout_value = 0.513

[[record]]
sequence_text = "RHFTGCRIELQ [INSR_Y818_Y818C]"
readout_value = 0.771

